- Species: Rattus norvegicus
- Measurement notes: Open TG-GATES - Regimen: Single
- Format: toxicity, organism-based, Sprague-Dawley
- Design: regimen Single, gender Male, age 6 weeks
- Particulars: in vivo, po, 30 mg/kg, 9 h, route gavage, dose level Middle

Compound	TERMINAL_BW, g
CN(C)CCCN1c2ccccc2CCc2ccccc21 [IMIPRAMINE]	197.4
CN(C)CCN(Cc1cccs1)c1ccccn1	183.7
CC1=C(/C=C/C(C)=C/C=C/C(C)=C/CO)C(C)(C)CCC1 [RETINOL]	195.6
CN(C)CCCN1c2ccccc2CCc2ccc(Cl)cc21 [CLOMIPRAMINE]	211.3
